Data provenance: patent US20230374116A1

- experimentalTarget: SARS-CoV-2 receptor-binding domain fused to hIgG1 Fc (SARS-CoV-2 (Wuhan/Victoria), UniProt P0DTC2 330-532)
- assayRemarks: SPR, trimer analyte, RBD ligand
observable: Kd (nM)
State the answer as a number, implicitly in nM.

Answered cases to consult:
A8 trimer (bispecific antibody) QVQLVESGGGLVQAGGSLRLSCAASGGTFSTAAMGWFRQAPGEERECVASIGWRGVRTWYADSVKGRFTISRDNPQNTVYLQMNNLKSGDTAVYYCAASVGNYGLPWAHFEYDFWGQGIQVTVSSGSGSGSQVQLVESGGGLVQAGGSLRLSCAASGGTFSTAAMGWFRQAPGEERECVASIGWRGVRTWYADSVKGRFTISRDNPQNTVYLQMNNLKSGDTAVYYCAASVGNYGLPWAHFEYDFWGQGIQVTVSSGSGSGSQVQLVESGGGLVQAGGSLRLSCAASGGTFSTAAMGWFRQAPGEERECVASIGWRGVRTWYADSVKGRFTISRDNPQNTVYLQMNNLKSGDTAVYYCAASVGNYGLPWAHFEYDFWGQGTQVTVSSKHHHHHH; 0.005
C1 trimer (VHH) QVQLVESGGGLVQPGGSLRLSCAASGFTNDFYSIAWFRQAPGKEREGVSWLSVSDNTPTYVDSVKDRFTISRHNANNTVYLQMNMLKPEDTAIYYCAAGRFAGRDTWPSSYDYWGQGTQVTVSSGSGSGSQVQLVESGGGLVQPGGSLRLSCAASGFTNDFYSIAWFRQAPGKEREGVSWLSVSDNTPTYVDSVKDRFTISRHNANNTVYLQMNMLKPEDTAIYYCAAGRFAGRDTWPSSYDYWGQGTQVTVSSGSGSGSQVQLVESGGGLVQPGGSLRLSCAASGFTNDFYSIAWFRQAPGKEREGVSWLSVSDNTPTYVDSVKDRFTISRHNANNTVYLQMNMLKPEDTAIYYCAAGRFAGRDTWPSSYDYWGQGTQVTVSS; 0.053
H3 trimer (VHH) QVQLVESGGGLVKTGGSLRLSCAASGRTFSTYSMGWFRQAPGKEREFVAGMRWTGSSTFYSDSVKGRFTVSRNNAKDTVYLHMNSLKPEDTAVYYCAITTIVRAYYTEYTEADFGSWGQGTQVTVSSGAVLAPQVQLVESGGGLVKTGGSLRLSCAASGRTFSTYSMGWFRQAPGKEREFVAGMRWTGSSTFYSDSVKGRFTVSRNNAKDTVYLHMNSLKPEDTAVYYCAITTIVRAYYTEYTEADFGSWGQGTQVTVSSGSGSGSQVQLVESGGGLVKTGGSLRLSCAASGRTFSTYSMGWFRQAPGKEREFVAGMRWTGSSTFYSDSVKGRFTVSRNNAKDTVYLHMNSLKPEDTAVYYCAITTIVRAYYTEYTEADFGSWGQGTQVTVSS; 0.0003

Then there is this binder:
Query: Give the measured Kd of C5 trimer (VHH, also called trimeric C5 nanobody; C5-6GS-C5-6GS-C5) QVQLVESGGGSVQAGGSLTLSCVASGVTLGRHAIGWFRQAPGKERERVSCIRTFDGITSYVESTKGRFTISSNNAMNTVYLQMNSLKPEDTAVYFCALGVTAACSDNPYFWGQGTQVTVSSGSGSGSQVQLVESGGGSVQAGGSLTLSCVASGVTLGRHAIGWFRQAPGKERERVSCIRTFDGITSYVESTKGRFTISSNNAMNTVYLQMNSLKPEDTAVYFCALGVTAACSDNPYFWGQGTQVTVSSGSGSGSQVQLVESGGGSVQAGGSLTLSCVASGVTLGRHAIGWFRQAPGKERERVSCIRTFDGITSYVESTKGRFTISSNNAMNTVYLQMNSLKPEDTAVYFCALGVTAACSDNPYFWGQGTQVTVSS .
Result: 0.018
